Test: AGP1-GFP expression modulators, hit retest, confirmation, cell-based, flow cytometry, S. cerevisiae, cherry picks (AID 2273);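 further: median GFP channel fluorescence over the whole cell population gate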
Details: S. cerevisiae AGP1-GFP strain, 3 h, at 10 µM
The source made the active and inactive calls.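 How the source made its calls: active means GFP response above 150% of the DMSO level; inconclusive means fewer than 70 events counted for a yeast strain; inactive means the rest.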
propertyLabel: GFP response, % of DMSO

// worked examples, GFP response, % of DMSO included
# compound, GFP response, % of DMSO
records = [
    ("Cc1ccc(C2CC(c3ccco3)=NN2S(C)(=O)=O)cc1 (stereo unspecified)", "93.8% (inactive)"),
    ("Oc1c(Br)cc(Br)cc1C=Nc1ccc2[nH]ncc2c1", "102% (inactive)"),
    ("O=C(OCn1ncc(Br)c(Br)c1=O)c1ccccc1Cl", "105% (inactive)"),
    ("CC(=O)Oc1oc(-c2ccccc2)nc1C=Nc1ccc(N(C)C)cc1", "97% (inactive)"),
    ("Cc1ccc(SC(=O)c2c(C)noc2-c2cc(C)on2)cc1", "107% (inactive)"),
]

compound COC(=O)Nc1c(-c2ccccc2)nc2ccccn12 , GFP response, % of DMSO observed: 93.7% (inactive)

###

Experiment: RPL19A-GFP modulators, yeast TOR pathway, confirmation, cell-based, S. cerevisiae, flow cytometry, cherry picks, mother/daughter gates (AID 2270)
Conditions: S. cerevisiae RPL19A-GFP strain, 3 h, measured here: daughter cell gate, at 10 µM, stronger effect = lower value, 100 = same GFP as DMSO wells
propertyLabel: GFP response vs DMSO (%)
Could you give me the number in %? Just the number is fine.

// worked examples, GFP response vs DMSO included
# compound, measuredValue
rows = [
    ("Cc1ccccc1Sc1ncnc2onc(C)c12", 99),
    ("O=C1C(Cl)=C(NCCc2ccccc2)C(=O)N1CCc1ccccc1", 103),
    ("COc1ccc(N2C(=O)C(Cl)=C(Nc3ccccc3O)C2=O)cc1", 98.8),
    ("O=C(Nc1ccccc1)c1c(F)cccc1F", 103),
    ("Clc1ccc(-n2nnnc2Sc2ncnc3sccc23)cc1", 98.4),
    ("O=[N+]([O-])c1ccc(N2N=C(c3ccco3)CC2c2ccccc2)cc1 (stereo not given)", 104),
    ("FC(F)(F)c1cc(-c2cccs2)nc2cc(-c3cccs3)nn12", 102),
    ("Oc1ccc(N=Nc2ccccc2)o1", 113),
    ("Cc1nn(Cc2ccccc2Cl)c(C)c1C(=O)NCc1ccco1", 101),
    ("Cn1nnnc1N=N/C(=N/Nc1ccccc1)c1ccccc1", 96.1),
]

compound CCC(CC)C(=O)Nc1cccc(/C(C)=N/NC(=O)c2ccccc2Cl)c1 , GFP response vs DMSO observed: 97

compound CCN(Cc1ccccc1)S(=O)(=O)c1ccc(C(=O)Nc2nnc(C3CC3)o2)cc1 , GFP response vs DMSO observed: 97

###

Test: modulators of CIT2-GFP expression in yeast, confirmation, S. cerevisiae, GFP fusion, cherry picks, mother/daughter gates (AID 2274)
Details: S. cerevisiae CIT2-GFP strain, flow cytometry, 3 h; at 10 µM; stronger effect = higher value
propertyLabel: GFP response, % of DMSO (%)
Could you give me the number in %? Just the number is fine.

# compound, valueUnits, GFP response, % of DMSO
data = [
    ("Oc1c(Br)cc(Br)cc1C=Nc1ccc2c(c1)OCO2", "%", 97.8),
    ("COC(=O)Cn1nc(-c2ccccc2)c2ccccc21", "%", 102),
    ("COc1cc(NC(=O)c2cccc(C)c2)ccc1NC(=O)c1cc2ccccc2o1", "%", 103),
    ("COc1ccccc1-c1noc(CCC(=O)Nc2cccc(C(F)(F)F)c2)n1", "%", 100),
    ("O=C1/C(=C\\c2ccccn2)SC(=S)N1Nc1ncc(C(F)(F)F)cc1Cl", "%", 95),
]

compound CCC(=O)Nc1nc(C)c(-c2csc(Nc3cccc(C(=O)O)c3)n2)s1 , GFP response, % of DMSO observed: 100

compound COc1cccc(/C=C2\C(=O)N(c3cccc(C)c3)C(=O)c3ccccc32)c1 , GFP response, % of DMSO observed: 79.7

compound CCOc1ccc(S(=O)(=O)n2ccnc2C)cc1 , GFP response, % of DMSO observed: 104

compound CCCc1[nH]nc2c1C(c1ccc(OC(=O)N3CCOCC3)c(OC)c1)C(C#N)=C(N)O2 (configuration not stated) , GFP response, % of DMSO observed: 97.8

compound O=c1cc(-c2c(F)c(F)c(F)c(F)c2F)oc2c(F)c(F)c(F)c(F)c12 , GFP response, % of DMSO observed: 132

compound O=[N+]([O-])c1cccc(/C=N/Nc2ncc(Br)cn2)c1 , GFP response, % of DMSO observed: 86.1

compound CCN(CC)N=Nc1[nH]nc2nc(C)cc(C)c12 , GFP response, % of DMSO observed: 133

###

Experiment: modulators of CIT2-GFP expression in yeast, confirmation, S. cerevisiae, GFP fusion, cherry picks, mother/daughter gates (AID 2274)
Conditions: S. cerevisiae CIT2-GFP strain, flow cytometry, 3 h; measured here: mother cell gate; at 10 µM; stronger effect = higher value
propertyLabel: GFP response, % of DMSO (%)
Could you give me the number in %? Just the number is fine.

// worked examples, GFP response, % of DMSO included
# molecule, GFP response, % of DMSO [%]
data = [
    ("O=C(Nc1ccccc1)c1nnsc1S(=O)(=O)c1ccc(Cl)cc1", 84.3),
    ("O=C(Cc1ccc(Cl)cc1)Nc1ccc(Br)cn1", 99.3),
    ("COc1cc(C2CC(c3cccnc3)=NN2c2ccc(F)cc2)cc(OC)c1OC (stereo not drawn)", 96),
    ("O=C(NCc1ccc2c(c1)OCO2)c1nc(S(=O)(=O)Cc2ccccc2)ncc1Cl", 96.8),
    ("CCCCC(=O)O[C@]1(C(=O)CO)CC[C@H]2[C@@H]3CCC4=CC(=O)CC[C@]4(C)[C@H]3[C@@H](O)C[C@@]21C", 101),
    ("Cc1nnc(OCc2nc3ccccc3n2C)c2ccccc12", 95.6),
    ("CCn1c(=O)c(C(=O)Nc2ccccc2C)c(O)c2ccccc21", 96.1),
    ("CC(Oc1ccc(Cl)cc1)C(=O)NNC(=S)NC(=O)c1ccco1 (stereo not drawn)", 93.2),
    ("Cc1cccc(CS(=O)(=O)c2ncc(Cl)c(C(=O)Nc3c(C)cccc3C)n2)c1", 101),
    ("COc1ccc2c(/C=C/c3cc[n+](C)cc3)c[nH]c2c1", 157),
]

molecule CCCN(c1ccccc1F)S(=O)(=O)c1cc(-c2cc(C)no2)ccc1OC , GFP response, % of DMSO observed: 95

molecule COc1ccc(C(=O)Oc2ccc(/C=N/NC(=O)c3ccccc3OC)cc2[N+](=O)[O-])cc1 , GFP response, % of DMSO observed: 100

molecule C[C@]12CCC(=O)C=C1CC[C@@H]1[C@@H]2C(=O)C[C@@]2(C)[C@H]1CC[C@]2(O)C(=O)CO , GFP response, % of DMSO observed: 99.1

###

Test: inhibitors of CD8+ T cell-vesicle binding, pilot screen, LFA-1/ICAM-1 modulator project, MLPCN validation set, flow cytometry (AID 2523)
Details: 2C mouse CD8+ T cells, at 7 µM, stronger effect = lower value; measured here: CD8+/vesicle+ event percentage
Each item that follows carries a reported double positive events.
Could you give me the number in %? Just the number is fine.

// worked examples, double positive events included
# molecule, propertyLabel, measuredValue
rows = [
    ("COc1ccc(C(=O)Nc2nc3ccccc3c(=O)[nH]2)cc1", "double positive events", 65.5),
    ("CCSc1nc(O)c(C2OC(=O)c3c2ccc(OC)c3OC)c(=O)n1CC (stereo not drawn)", "double positive events", 69.4),
]

molecule CN(C)C(=O)C(CCN1CCC(O)(c2ccc(Cl)cc2)CC1)(c1ccccc1)c1ccccc1 , double positive events observed: 70.4

molecule COc1ccc(-c2coc3cc(O)cc(O)c3c2=O)cc1 , double positive events observed: 58.4

molecule CCOC(=O)COc1ccc2c(=O)c(-c3ccccc3)coc2c1 , double positive events observed: 61.7

molecule O=C(O)CC(O)C(=O)O (stereo not drawn) , double positive events observed: 62.1

molecule CN1CCc2cccc3c2[C@@H]1Cc1ccc(O)c(O)c1-3 , double positive events observed: 61

###

Assay: LAP4-GFP expression modulators in yeast, confirmation, cell-based, cherry picks, flow cytometry, mother/daughter gates (AID 2271);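 further: ratio of sample to DMSO plate mean so 100% equals DMSO level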
Conditions: S. cerevisiae LAP4-GFP strain, 3 h, measured here: daughter cell gate response, at 10 µM, stronger effect = higher value, 100 means same as DMSO control
Each item that follows carries a reported GFP response relative to DMSO.
Could you give me the number in %? Just the number is fine.

# lineNotation, GFP response relative to DMSO / %
data = [
    ("Cc1ccc(Oc2nc(-c3ccccn3)nc3ccccc23)cc1", 107),
    ("N#Cc1ccc(Sc2ccccn2)c([N+](=O)[O-])c1", 105),
    ("CCCCc1nnc(NC(=O)c2nc3nccc(C)n3n2)s1", 95),
]

molecule Cc1cccc(N2C(=O)c3cccc4c(N(C)CCO)ccc(c34)C2=O)c1 , GFP response relative to DMSO observed: 106

molecule Cc1ccccc1CN1CCSc2sccc2C1=O , GFP response relative to DMSO observed: 105

molecule O=c1oc(/C=C/c2ccc([N+](=O)[O-])s2)nc2ccccc12 , GFP response relative to DMSO observed: 180

molecule Cc1ccc(/C=C/C(=O)c2ccccc2)cc1 , GFP response relative to DMSO observed: 102

molecule CCOC(=O)N/C(N)=N/c1nc2ccccc2s1 , GFP response relative to DMSO observed: 113

molecule COc1ccc(-c2noc(-c3cccc(Cl)c3)n2)cc1OC , GFP response relative to DMSO observed: 101

molecule CC(C)n1c(=S)[nH]c2c1c(=O)[nH]c(=O)n2C , GFP response relative to DMSO observed: 102

molecule Cc1nn(Cc2c(Cl)cccc2Cl)c(C)c1NC(=O)c1sc2ccccc2c1Cl , GFP response relative to DMSO observed: 93.6

molecule Clc1ccc(OCCn2cnc3ccccc32)c(Cl)c1 , GFP response relative to DMSO observed: 123

molecule O=C(N/N=C/c1ccccc1Cl)c1cccc(F)c1 , GFP response relative to DMSO observed: 101

molecule S=c1[nH]nc(-c2ccco2)n1/N=C/C(Cl)=C/c1ccccc1 , GFP response relative to DMSO observed: 121

molecule O=C(NC(=S)NNC(=O)[C@H]1C[C@@H]1c1ccccc1)c1cccc(F)c1 , GFP response relative to DMSO observed: 144

molecule Oc1ccccc1/C=N/c1c(-c2ccco2)nc2ccccn12 , GFP response relative to DMSO observed: 97.2
